assay: Cytotoxicity against human PC3 cells assessed as reduction in cell viability after 72 hrs by MTT assay; type: functional, cell-based; details: PC-3, 72 h
READOUT KIND: IC50

Prompt: May I ask what IC50 has been recorded for C=C(C)[C@H]1C[C@](C/C=C(\C)CCC=C(C)C)(C(=O)O)c2c(oc3c(CC=C(C)C)c(O)cc(O)c3c2=O)[C@@H]1O ?
Response: > 10 µM

Prompt: Returns the measured IC50 for the input compound. Input: CC(C)=CCC1=C(O)C(=O)C(CC=C(C)C)(CC=C(C)C)c2c1oc1cc(O)cc(O)c1c2=O
Response: > 10 µM

Prompt: Return reported IC50; argument: CC(C)=CCC/C(C)=C/C[C@]1(C(=O)O)CC(=C(C)C)C(=O)c2oc3c(CC=C(C)C)c(O)cc(O)c3c(=O)c21
Response: > 10 µM

###

experiment: cells; conditions: Homo sapiens, HT-29, 72 h
Description: Cytotoxicity against human HT-29 cells assessed as reduction in cell viability after 72 hrs by MTT assay
READOUT KIND: IC50

As a guide, the following entries are already answered.
CC(C)=CCC1=C(O)C(=O)C(CC=C(C)C)(CC=C(C)C)c2c1oc1cc(O)cc(O)c1c2=O :: > 10 µM
CC(C)=CCc1c(O)cc(O)c2c(=O)c3c(oc12)C(CC=C(C)C)(CC=C(C)C)C(=O)C(O)=C3 :: > 10 µM
CC(C)=CCC/C(C)=C/C[C@]1(C(=O)O)CC(=C(C)C)C(=O)c2oc3c(CC=C(C)C)c(O)cc(O)c3c(=O)c21 :: > 10 µM
CC(C)=CCc1c(O)c(O)c(O)c2oc3c4c(cc(O)c3c(=O)c12)OC(C)(C)C=C4 :: > 10 µM
CO[C@]12C=C3C(=O)c4c(O)cc(O)c(CC=C(C)C)c4O[C@]34C(C1)C(C)(C)O[C@]4(CC=C(C)C)C2=O :: 2.2 µM
CC(C)=CCC1(CC=C(C)C)C(=O)C(O)=C(O)c2oc3c4c(cc(O)c3c(=O)c21)OC(C)(C)C=C4 :: 4.1 µM

Prompt: Recorded IC50 of CC(C)=CCc1cc(C(C)C)c(O)c2oc3c4c(cc(O)c3c(=O)c12)OC(C)(C)C=C4 , please.
Response: > 10 µM

Prompt: So what's the measured IC50 for this one? CC(C)=CCC1(C(=O)O)CC(=C(C)C)C(=O)c2oc3c4c(cc(O)c3c(=O)c21)OC(C)(C)C=C4 (racemic)
Response: > 10 µM

###

# Lookup of reported IC50 keyed by entry
test: Cytotoxicity against human PC3 cells assessed as reduction in cell viability after 72 hrs by MTT assay; assay type: functional, cell-based; settings: PC-3, 72 h
API: value field is a number in µM; no unit string.

Below are worked cases with known answers.
CO[C@]12C=C3C(=O)c4c(O)cc(O)c(CC=C(C)C)c4O[C@]34C(C1)C(C)(C)O[C@]4(CC=C(C)C)C2=O :: 2.1
CC(C)=CCC/C(C)=C/C[C@@]1(CC=C(C)C)C(=O)C(O)=C(O)c2oc3c4c(cc(O)c3c(=O)c21)OC(C)(C)C=C4 :: 5.9
CC(C)=CCC1(CC=C(C)C)C(=O)C(O)=C(O)c2oc3c4c(cc(O)c3c(=O)c21)OC(C)(C)C=C4 :: 3.2

Let's switch to this compound now.
Prompt: What value of measured IC50 is listed for CO[C@]12C=C3C(=O)c4c(O)c(CC=C(C)C)c(O)c(CC=C(C)C)c4O[C@]34C(C1)C(C)(C)O[C@]4(CC=C(C)C)C2=O ?
Response: 2.3
